Values were extracted from ChEMBL document CHEMBL5113505.

Biological target: Mitogen-activated protein kinase kinase kinase 20 (Homo sapiens) (UniProt Q9NYL2)
Sequence (Q9NYL2 2-800 limits assumed): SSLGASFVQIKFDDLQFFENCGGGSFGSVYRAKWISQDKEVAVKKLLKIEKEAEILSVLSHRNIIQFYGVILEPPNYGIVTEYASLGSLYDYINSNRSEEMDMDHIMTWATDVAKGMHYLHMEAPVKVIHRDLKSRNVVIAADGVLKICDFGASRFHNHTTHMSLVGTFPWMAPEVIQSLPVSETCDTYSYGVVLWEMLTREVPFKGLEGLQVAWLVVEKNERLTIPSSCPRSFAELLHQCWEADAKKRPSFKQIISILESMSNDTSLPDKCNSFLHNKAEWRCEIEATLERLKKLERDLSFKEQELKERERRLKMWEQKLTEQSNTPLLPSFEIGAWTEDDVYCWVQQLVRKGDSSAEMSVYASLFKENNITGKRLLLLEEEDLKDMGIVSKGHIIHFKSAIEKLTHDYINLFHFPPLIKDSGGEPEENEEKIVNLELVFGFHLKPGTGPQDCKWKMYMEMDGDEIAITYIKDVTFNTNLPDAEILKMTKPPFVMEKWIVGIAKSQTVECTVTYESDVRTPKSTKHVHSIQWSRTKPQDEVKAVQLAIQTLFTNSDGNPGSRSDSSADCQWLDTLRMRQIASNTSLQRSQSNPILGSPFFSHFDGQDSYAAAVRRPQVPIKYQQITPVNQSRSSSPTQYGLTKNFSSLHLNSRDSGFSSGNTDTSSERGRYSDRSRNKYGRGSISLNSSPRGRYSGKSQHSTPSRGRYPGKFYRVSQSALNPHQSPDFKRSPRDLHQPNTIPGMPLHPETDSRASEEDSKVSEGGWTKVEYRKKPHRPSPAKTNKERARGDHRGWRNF
Assay: Binding affinity to ZAK (unknown origin) assessed as percent of control at 100 nM by Kinomescan method relative to control
Record form. Attribute: Activity. Fill in for each entry.
Write the number in % without appending the unit.

For record `CCCS(=O)(=O)Nc1ccc(F)c(C(=O)c2ccc3[nH]c4ncc(-c5ccc(S(N)(=O)=O)cc5)cc4c3c2)c1F` the listed Activity is 100

For record CCCS(=O)(=O)Nc1ccc(F)c(C(=O)c2ccc3[nH]c4ncc(-c5ccc(C(=O)NCC(O)CO)cc5)cc4c3c2)c1F (stereo not given) the listed Activity is 88

For record `CCCS(=O)(=O)Nc1ccc(F)c(C(=O)c2c[nH]c3ncc(-c4cccnc4)cc23)c1F` the listed Activity is 0.6

For record CCCS(=O)(=O)Nc1ccc(F)c(C(=O)c2ccc3[nH]c4ncc(-c5ccc(OCC(O)CO)cc5)cc4c3c2)c1F (stereo not given) the listed Activity is 100

For record `CCCS(=O)(=O)Nc1ccc(F)c(C(=O)c2ccc3[nH]c4ncc(-c5ccc(O)cc5)cc4c3c2)c1F` the listed Activity is 100

For record `CCCS(=O)(=O)Nc1ccc(F)c(C(=O)c2ccc3[nH]c4ncc(-c5ccc(Cl)cc5)cc4c3c2)c1F` the listed Activity is 100

For record CCCS(=O)(=O)Nc1ccc(F)c(C(=O)c2n[nH]c3ncc(-c4ccc(C(=O)NCC(O)CO)cc4)cc23)c1F (stereo not given) the listed Activity is 2.8

For record `CCCS(=O)(=O)Nc1ccc(F)c(C(=O)c2ccc3[nH]c4ncc(-c5ccc(-c6nnn[nH]6)cc5)cc4c3c2)c1F` the listed Activity is 100

For record `CCCS(=O)(=O)Nc1ccc(F)c(C(=O)c2c[nH]c3ncc(-c4ccc(S(N)(=O)=O)cc4)cc23)c1F` the listed Activity is 94

For record `CCCS(=O)(=O)Nc1ccc(F)c(C(=O)c2ccc3[nH]c4ncc(-c5ccc(C(=O)O)cc5)cc4c3c2)c1F` the listed Activity is 98
